- assay-details: Dissolution study in simulated intestinal fluid (FaSSIF V2)
- Assay type: physicochemical
- measurement-setup: simulated intestinal fluid (FaSSIF V2), thermodynamic from solid; 50 ml FaSSIF V2, pH 6.5, 37° C., 20 minutes
- Description: For BCS class II drugs, such as tranilast, the rate of dissolution of the drug form used in the gastrointestinal media can be the controlling factor in the overall absorption and thus the bioavailability of an oral drug. This becomes even more influential as the dose of a drug increases. […] Detection and quantification of tranilast was performed by in-situ UV-spectroscopy using a fibre-optic probe, allowing instantaneous data collection from the point of sample introduction.
Where a name gives a salt, the structure may show the parent alone.
measured-parameter: solubility at 20 minutes (µg/mL)

{"molecule": "COc1ccc(/C=C/C(=O)Nc2ccccc2C(=O)O)cc1OC [crystalline 1:1 tranilast sodium salt]", "recorded-measurement": 300}
